# assay_system: 5-hydroxytryptamine receptor 1A (Rattus norvegicus, UniProt P19327)
# Sequence (P19327 whole entry): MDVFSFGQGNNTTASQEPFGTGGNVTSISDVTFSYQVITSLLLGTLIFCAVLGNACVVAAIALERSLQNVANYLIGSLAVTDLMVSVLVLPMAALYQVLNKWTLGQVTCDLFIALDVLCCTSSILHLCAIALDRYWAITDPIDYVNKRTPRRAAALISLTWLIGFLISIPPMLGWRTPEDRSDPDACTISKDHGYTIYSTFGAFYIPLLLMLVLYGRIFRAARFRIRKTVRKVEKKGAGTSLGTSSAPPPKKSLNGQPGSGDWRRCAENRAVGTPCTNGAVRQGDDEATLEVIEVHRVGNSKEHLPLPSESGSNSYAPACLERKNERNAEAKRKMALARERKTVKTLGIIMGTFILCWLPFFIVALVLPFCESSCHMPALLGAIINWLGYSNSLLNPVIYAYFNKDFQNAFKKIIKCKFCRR
Where a name gives a salt, the structure may show the parent alone.
attribute_measured: Ki

Solved cases below.
>>> observed_measurement("CN[C@@H]1CC[C@@H](c2ccc(Cl)c(Cl)c2)c2ccccc21")
"> 10 µM"
>>> observed_measurement("COCCCC/C(=N\\OCCN)c1ccc(C(F)(F)F)cc1")
"> 10 µM"
>>> observed_measurement("CN(C)CCCC1(c2ccc(F)cc2)OCc2cc(C#N)ccc21 (centres undefined) [CITALOPRAM HYDROBROMIDE]")
"> 10 µM"
>>> observed_measurement("CN(C)CCC=C1c2ccccc2CCc2ccccc21")
"> 10 µM"
>>> observed_measurement("CN(CCCN1c2ccccc2CCc2ccccc21)CC(=O)c1ccc(Cl)cc1")
"> 10 µM"
>>> observed_measurement("CCc1nn(CCCN2CCN(c3cccc(Cl)c3)CC2)c(=O)n1CCOc1ccccc1")
"1 µM"
>>> observed_measurement("CN(C)CCC=C1c2ccccc2CSc2ccccc21")
"4 µM"
>>> observed_measurement("COc1ccc(C(CN(C)C)C2(O)CCCCC2)cc1 (centres undefined)")
"> 10 µM"

Let us examine a further case.
[ask] Answer with the recorded Ki of Fc1ccc([C@@H]2CCNC[C@H]2COc2ccc3c(c2)OCO3)cc1 only.
[reply] > 10 µM
